- Test system: primary human T-cells
- Test protocol: Proliferation assay after 5 days (CellTiter-Glo, CD3 stimulation; PBS counter screen)
- Format: cell-based
- Cond: Homo sapiens, T-cell, 120 h, CD3 stimulation, 5 days; normalized to reference compound A1 as stimulator control = 100%, DMSO neutral control; read-out: Emax proliferation (% activation)
In this section we review reported Emax values for a set of molecules.

[
  {
    "Smiles str": "N[C@H]1CS(=O)(=O)c2cc(F)c(-c3nnc(NC4CCN(C5CC5)CC4)o3)cc2N(Cc2ccc(Cl)cc2)C1=O",
    "Emax (%)": 55
  },
  {
    "Smiles str": "CC(C)(C)c1nc(-c2cc3c(cc2F)S(=O)(=O)C[C@H](N)C(=O)N3Cc2ccc(OC3CCCC3)cc2)no1",
    "Emax (%)": 256
  },
  {
    "Smiles str": "CC(C)(C)c1nnc(-c2cc3c(cc2F)S(=O)(=O)C[C@H](N)C(=O)N3Cc2ccc(C3(O)COC3)cc2)o1",
    "Emax (%)": 69
  },
  {
    "Smiles str": "N[C@H]1CS(=O)(=O)c2cc(F)c(-c3nnc(NC4CC(F)(F)C4)o3)cc2N(Cc2ccc(Cl)cc2)C1=O",
    "Emax (%)": 121
  }
]

* * *

- Tested on: primary human T-cells
- Test protocol: Proliferation assay after 5 days (CellTiter-Glo, CD3 stimulation; PBS counter screen)
- Assay type: cell-based
- Cond: Homo sapiens, T-cell, 120 h, CD3 stimulation, 5 days; normalized to reference compound A1 as stimulator control = 100%, DMSO neutral control; read-out: Emax proliferation (% activation)
Endpoint: Emax (%)

[
  {
    "Compound": "N#CC1(c2nnc(-c3cc4c(cc3F)S(=O)(=O)C[C@H](N)C(=O)N4Cc3ccc(Cl)cc3)o2)CC1",
    "Endpoint": "Emax",
    "Measured value": 99
  },
  {
    "Compound": "N[C@H]1CS(=O)(=O)c2ccc(-c3nnc(N4CCOC(C(F)F)C4)o3)cc2N(Cc2ccc(Cl)cc2)C1=O (some centres unmarked)",
    "Endpoint": "Emax",
    "Measured value": 95
  },
  {
    "Compound": "CC(C)(C)c1nnc(-c2cc3c(cc2F)S(=O)(=O)C[C@H](NC(=O)CCN)C(=O)N3Cc2ccc(Cl)cc2)o1",
    "Endpoint": "Emax",
    "Measured value": 106
  },
  {
    "Compound": "CC1(C)CN(c2nnc(-c3cc4c(cc3F)S(=O)(=O)C[C@H](N)C(=O)N4Cc3ccc(Cl)cc3)o2)CCO1",
    "Endpoint": "Emax",
    "Measured value": 126
  },
  {
    "Compound": "NCc1noc(-c2cc3c(cc2F)S(=O)(=O)C[C@H](N)C(=O)N3Cc2ccc(Cl)cc2)n1",
    "Endpoint": "Emax",
    "Measured value": 40
  },
  {
    "Compound": "N[C@H]1CS(=O)(=O)c2cc(F)c(-c3ccn[nH]3)cc2N(Cc2ccc(Cl)cc2)C1=O",
    "Endpoint": "Emax",
    "Measured value": 57
  },
  {
    "Compound": "N[C@H]1CS(=O)(=O)c2ccc(-c3nnc(NC4CC(F)(F)C4)o3)cc2N(Cc2ccc(Cl)cc2)C1=O",
    "Endpoint": "Emax",
    "Measured value": 82
  },
  {
    "Compound": "CN1CCCC(C)(c2nnc(-c3cc4c(cc3F)S(=O)(=O)C[C@H](N)C(=O)N4Cc3ccc(Cl)cc3)o2)C1 (some centres unmarked)",
    "Endpoint": "Emax",
    "Measured value": 107
  },
  {
    "Compound": "CC(C)(C)c1nnc(-c2cc3c(cc2F)S(=O)(=O)C[C@H](N)C(=O)N3Cc2ccc(OC3CCCC3)nc2)o1",
    "Endpoint": "Emax",
    "Measured value": 157
  },
  {
    "Compound": "CC1(C)COCCN1c1nnc(-c2cc3c(cc2F)S(=O)(=O)C[C@H](N)C(=O)N3Cc2ccc(Cl)cc2)o1",
    "Endpoint": "Emax",
    "Measured value": 56
  },
  {
    "Compound": "N[C@H]1CS(=O)(=O)c2cc(F)c(-c3noc(N4CCNC(C(F)(F)F)C4)n3)cc2N(Cc2ccc(Cl)cc2)C1=O (some centres unmarked)",
    "Endpoint": "Emax",
    "Measured value": 112
  },
  {
    "Compound": "CC(C)(C)c1nnc(-c2ccc3c(c2)N(Cc2ccc(OCC(F)F)cc2)C(=O)[C@@H](N)CS3(=O)=O)o1",
    "Endpoint": "Emax",
    "Measured value": 103
  },
  {
    "Compound": "CC(C)(C)c1nnc(-c2cc3c(cc2F)S(=O)(=O)C[C@H](N)C(=O)N3Cc2ccc(CN)cc2)o1",
    "Endpoint": "Emax",
    "Measured value": 25
  },
  {
    "Compound": "CN1CCN(CC(C)(C)c2nnc(-c3cc4c(cc3F)S(=O)(=O)C[C@H](N)C(=O)N4Cc3ccc(Cl)cc3)o2)CC1",
    "Endpoint": "Emax",
    "Measured value": 48
  }
]

Data origin: patent US20240368150A1
